Entries and their measured pKd follow.
# Target or test system: UniProtKB P43166
# Sequence (P43166 whole entry): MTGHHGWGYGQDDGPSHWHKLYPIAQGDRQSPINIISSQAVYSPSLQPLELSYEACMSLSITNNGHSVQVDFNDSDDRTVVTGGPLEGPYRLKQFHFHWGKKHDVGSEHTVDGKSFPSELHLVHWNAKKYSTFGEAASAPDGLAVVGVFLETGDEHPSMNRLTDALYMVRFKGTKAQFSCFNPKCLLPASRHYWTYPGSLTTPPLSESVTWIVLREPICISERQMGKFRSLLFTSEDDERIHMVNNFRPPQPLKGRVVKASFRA
# Test method notes: Binding affinity to human recombinant CA7 by fluorescence-based thermal shift assay
pKd: −log10 of the molar value.

>  <Compound>
CNc1c(F)c(S(N)(=O)=O)c(F)c(F)c1S(=O)(=O)CCc1ccccc1

>  <pKd>
8.51

$$$$
>  <Compound>
NS(=O)(=O)c1cccc(C(=O)Cn2cnc3ccccc32)c1

>  <pKd>
5.54

$$$$
>  <Compound>
COc1ccc(CNc2c(F)c(F)c(F)c(F)c2S(N)(=O)=O)cc1

>  <pKd>
6.60

$$$$
>  <Compound>
NS(=O)(=O)c1c(F)c(F)c(N2CCCCC2)c(F)c1F

>  <pKd>
8.23

$$$$

Measured values drawn from ChEMBL document CHEMBL3797037 for this set.
